experiment-summary: Ratio of drug level in brain to plasma of Sprague-Dawley rat at 10 mg/kg, po
Type: ADME, organism-based
Parameters: dose 10 mg/kg, route oral
condition-set: read-out: BPR
Task for the reader: assign each of the following compounds its reported Kp.
Give bare numbers.

Recorded results for 2 compounds are shown here.
Cc1ccccc1C1(C#N)CCN(Cc2cc(C(=O)O)c(=O)n3ccccc23)CC1: 0.48
N#CC1(c2ccccc2)CCN(Cc2cc(C(=O)O)c(=O)n3ccccc23)CC1: 0.39

Need Kp for each of these compounds.
1. N#CC1(c2ccccn2)CCN(Cc2cc(C(=O)O)c(=O)n3ccccc23)CC1 [MSD-M1PAM]
2. Cc1ccnc(C2(C#N)CCN(Cc3cc(C(=O)O)c(=O)n4ccccc34)CC2)c1

Result ::
0.23
0.07
